System Under Test: Leucyl-cystinyl aminopeptidase (Homo sapiens)
Where a SMILES comes first, the peptide text is derived from it. The star is where a group is joined. X1 = CC(C)CC(CP(=O)(O)[C@@H](N)CCc1ccccc1)C(=O)*
Consider the following compounds; for each one, report its IC50.
Give bare numbers, in µM.

Compound	Recorded Value
CC(C)CC(CP(=O)(O)[C@@H](N)CCc1ccccc1)C(=O)N[C@@H](CCCCN)C(=O)N[C@@H](Cc1cnc[nH]1)C(=O)N[C@@H](Cc1cnc[nH]1)C(=O)N[C@@H](C)C(=O)N[C@@H](Cc1ccccc1)C(=O)N[C@@H](CO)C(=O)N[C@@H](Cc1ccccc1)C(=O)N[C@@H](CCCCN)C(N)=O (some centres not stated) (X1-KHHAFSFK-NH2)	0.0077

Task item: Under Leucyl-cystinyl aminopeptidase (Homo sapiens): IC50 value of `NC(=O)[C@H](Cc1ccccc1)NC(=O)[C@H](CCC(c1ccccc1)c1ccccc1)CP(=O)(O)[C@@H](N)CCc1ccccc1` ?
Reply: 0.032
